This listing pairs sequences with measured NC2 (SAGE tag count).
- System: colorectal tissue transcripts
- EXPERIMENT NOTES: SAGE of normal, adenoma and cancer colorectal tissue (transcript tag counts)
- Parameters: species or system human
- EXPERIMENTAL CONDITIONS: SAGE library NC2
Lab note: jot down the number only; don't add units.

Study these solved cases before continuing.
sequence_string="ATGTGGGCTC (chemistry not fully specified)" assay_metric="NC2 (SAGE tag count)" observed_result=2
sequence_string="AGCAGGAGCA (chemistry not fully specified)" assay_metric="NC2 (SAGE tag count)" observed_result=14
sequence_string="GGAGGCGCTC (chemistry not fully specified)" assay_metric="NC2 (SAGE tag count)" observed_result=11
sequence_string="CCTCCAGCTA (chemistry not fully specified)" assay_metric="NC2 (SAGE tag count)" observed_result=458
sequence_string="CCTGGAAGAG (chemistry not fully specified)" assay_metric="NC2 (SAGE tag count)" observed_result=26

Determine from records and report NC2 (SAGE tag count) for GGGAAGCAGA (chemistry not fully specified)
17

Determine from records and report NC2 (SAGE tag count) for CCAACACCAG (chemistry not fully specified)
19

Determine from records and report NC2 (SAGE tag count) for CTTGATTCCC (chemistry not fully specified)
9

====

- Tested on: colorectal tissue transcripts
- EXPERIMENT NOTES: SAGE of normal, adenoma and cancer colorectal tissue (transcript tag counts)
- Parameters: species or system human
- EXPERIMENTAL CONDITIONS: SAGE library AD1
ASSAY METRIC: AD1 (SAGE tag count)
Lab note: jot down the number only; don't add units.

Study these solved cases before continuing.
sequence_string="CTGTGTGGCT (chemistry not fully specified; the letters are possibly those of the target site)" assay_metric="AD1 (SAGE tag count)" observed_result=1
sequence_string="ATTGGAGTGC (chemistry not fully specified)" assay_metric="AD1 (SAGE tag count)" observed_result=15

Determine from records and report AD1 (SAGE tag count) for ATGGTCTACG (chemistry not fully specified)
0

Determine from records and report AD1 (SAGE tag count) for CTCAGAACTT (chemistry not fully specified)
1

Determine from records and report AD1 (SAGE tag count) for CTAGCCTCAC (chemistry not fully specified)
30

====

- Tested on: colorectal tissue transcripts
- EXPERIMENT NOTES: SAGE of normal, adenoma and cancer colorectal tissue (transcript tag counts)
- Set-up: species or system human
- EXPERIMENTAL CONDITIONS: SAGE library NC2
This listing pairs sequences with measured NC2 (SAGE tag count).
Lab note: jot down the number only; don't add units.

Study these solved cases before continuing.
sequence_string="CTGTGTGGCT (chemistry not fully specified; the letters are possibly those of the target site)" observed_result=12
sequence_string="CCTGCTGCAG (chemistry not fully specified)" observed_result=34
sequence_string="CCCCCGAAGC (chemistry not fully specified)" observed_result=27
sequence_string="GATATGTAAA (chemistry not fully specified)" observed_result=10
sequence_string="GCTTGGGGAT (chemistry not fully specified)" observed_result=8
sequence_string="GCTCTTCCCC (chemistry not fully specified; the letters are possibly those of the target site)" observed_result=21
sequence_string="AAATCTGGCA (chemistry not fully specified)" observed_result=15
sequence_string="CCTGTCTGCC (chemistry not fully specified)" observed_result=22
sequence_string="ACATTGGGTG (chemistry not fully specified)" observed_result=334
sequence_string="GGATGGCTTA (chemistry not fully specified)" observed_result=5

GET NC2 (SAGE tag count) | system: colorectal tissue transcripts | item: CACCCCTGAT (chemistry not fully specified)
169

GET NC2 (SAGE tag count) | system: colorectal tissue transcripts | item: GCCACGTGGA (chemistry not fully specified)
16

GET NC2 (SAGE tag count) | system: colorectal tissue transcripts | item: ATGCGGGAGA (chemistry not fully specified)
39

GET NC2 (SAGE tag count) | system: colorectal tissue transcripts | item: GATGACCCCC (chemistry not fully specified)
49

GET NC2 (SAGE tag count) | system: colorectal tissue transcripts | item: GCCAGGTTGC (chemistry not fully specified)
5

GET NC2 (SAGE tag count) | system: colorectal tissue transcripts | item: CAGTGCGTTC (chemistry not fully specified)
3

GET NC2 (SAGE tag count) | system: colorectal tissue transcripts | item: ATTGGAGTGC (chemistry not fully specified)
85

====

- System: colorectal tissue transcripts
- EXPERIMENT NOTES: SAGE of normal, adenoma and cancer colorectal tissue (transcript tag counts)
- Parameters: species or system human
- EXPERIMENTAL CONDITIONS: SAGE library CA1
ASSAY METRIC: CA1 (SAGE tag count)
Lab note: jot down the number only; don't add units.

Study these solved cases before continuing.
sequence_string="GCGAAACTCG (chemistry not fully specified)" assay_metric="CA1 (SAGE tag count)" observed_result=0
sequence_string="GCTTGGGGAT (chemistry not fully specified)" assay_metric="CA1 (SAGE tag count)" observed_result=0
sequence_string="CTGACCTGTG (chemistry not fully specified)" assay_metric="CA1 (SAGE tag count)" observed_result=16

GET CA1 (SAGE tag count) | system: colorectal tissue transcripts | item: ACCTGGGGAG (chemistry not fully specified)
4

GET CA1 (SAGE tag count) | system: colorectal tissue transcripts | item: GGGACGAGTG (chemistry not fully specified)
6

GET CA1 (SAGE tag count) | system: colorectal tissue transcripts | item: CCTTCAAATC (chemistry not fully specified)
1

GET CA1 (SAGE tag count) | system: colorectal tissue transcripts | item: GCCGACCAGG (chemistry not fully specified)
19

GET CA1 (SAGE tag count) | system: colorectal tissue transcripts | item: ACTCTTGTTG (chemistry not fully specified)
0

GET CA1 (SAGE tag count) | system: colorectal tissue transcripts | item: ACCTGCATCC (chemistry not fully specified)
0

GET CA1 (SAGE tag count) | system: colorectal tissue transcripts | item: GCCCAGGTCA (chemistry not fully specified)
58

GET CA1 (SAGE tag count) | system: colorectal tissue transcripts | item: ATCGTGGCGG (chemistry not fully specified)
20

====

- Tested on: colorectal tissue transcripts
- EXPERIMENT NOTES: SAGE of normal, adenoma and cancer colorectal tissue (transcript tag counts)
- Parameters: species or system human
- EXPERIMENTAL CONDITIONS: SAGE library CA2
ASSAY METRIC: CA2 (SAGE tag count)
Lab note: jot down the number only; don't add units.

sequence_string="AACGTGCAGG (chemistry not fully specified)" assay_metric="CA2 (SAGE tag count)" observed_result=8
sequence_string="CTTGATTCCC (chemistry not fully specified)" assay_metric="CA2 (SAGE tag count)" observed_result=5
sequence_string="ACCCACGTCA (chemistry not fully specified)" assay_metric="CA2 (SAGE tag count)" observed_result=1

Determine from records and report CA2 (SAGE tag count) for ACCCCCCCGC (chemistry not fully specified)
6

Determine from records and report CA2 (SAGE tag count) for AGAATAGCTT (chemistry not fully specified)
30

Determine from records and report CA2 (SAGE tag count) for CATAGGTTTA (chemistry not fully specified)
0

Determine from records and report CA2 (SAGE tag count) for ATTGGAGTGC (chemistry not fully specified)
19

Determine from records and report CA2 (SAGE tag count) for AATGAGAAGG (chemistry not fully specified)
0

Determine from records and report CA2 (SAGE tag count) for GACCAGTGGC (chemistry not fully specified)
0

Determine from records and report CA2 (SAGE tag count) for GACCAGCCCA (chemistry not fully specified)
5

Determine from records and report CA2 (SAGE tag count) for CACCCCTGAT (chemistry not fully specified)
36

====

- Tested on: colorectal tissue transcripts
- EXPERIMENT NOTES: SAGE of normal, adenoma and cancer colorectal tissue (transcript tag counts)
- Design: species or system human
- EXPERIMENTAL CONDITIONS: SAGE library CA1
Field: label. Allowed values: 1 (yes) (CA1 (SAGE tag count) < 1) or 0 (no) (CA1 (SAGE tag count) >= 1).

Illustrative cases are given below, each with its answer.
sequence_string="GGGAAGCAGA (chemistry not fully specified)" measured_target="colorectal tissue transcripts" label_class="0 (no)"
sequence_string="CCGGCTTGAG (chemistry not fully specified)" measured_target="colorectal tissue transcripts" label_class="1 (yes)"
sequence_string="GTCCGAGTGC (chemistry not fully specified)" measured_target="colorectal tissue transcripts" label_class="1 (yes)"
sequence_string="CCATTCCACT (chemistry not fully specified)" measured_target="colorectal tissue transcripts" label_class="1 (yes)"
sequence_string="GGAGGCGCTC (chemistry not fully specified)" measured_target="colorectal tissue transcripts" label_class="1 (yes)"

Is CA1 (SAGE tag count) strictly under 1 for the entry ACCCACGTCA (chemistry not fully specified) ?
0 (no)

Is CA1 (SAGE tag count) strictly under 1 for the entry CCTCCAGTAC (chemistry not fully specified) ?
0 (no)

Is CA1 (SAGE tag count) strictly under 1 for the entry ACATTGGGTG (chemistry not fully specified) ?
0 (no)

Is CA1 (SAGE tag count) strictly under 1 for the entry ACGGTCCAGG (chemistry not fully specified) ?
1 (yes)
